# System: Maximal Electroshock (MES) model of acute generalized tonic clonic seizures
# METHOD: MES test of fenfluramine in combination with serotonergic inhibitors
# EXPERIMENTAL_CONDITIONS: Table 7; compound combined with 3 mg/kg FFA
PROPERTY_LABEL: Activity in MES model in presence of FFA (animals protected)

CC(C)NCC(O)COc1cccc2[nH]ccc12 (stereo not shown) [Pindolol]
FFA protected = 5/8
CN(C)CCCN1c2ccccc2Sc2ccc(Cl)cc21 [Chlorpromazine]
FFA protected = 5/8

###

# Tested on: Maximal Electroshock (MES) model of acute generalized tonic clonic seizures
# METHOD: MES test of fenfluramine in combination with serotonergic inhibitors
# EXPERIMENTAL_CONDITIONS: Table 7; compound combined with 3 mg/kg FFA
PROPERTY_LABEL: Activity in MES model in presence of FFA (animals protected)

O=C1CC2(CCCC2)CC(=O)N1CCNCC1COc2ccccc2O1 (stereo not drawn) [Binospirone]
FFA protected = 3/8
O=c1[nH]c2ccccc2n1C1CCN(CCCC(c2ccc(F)cc2)c2ccc(F)cc2)CC1 [Pimozide]
FFA protected = 3/8
